# measured_on: Abl kinase (Homo sapiens, UniProt P00519)
# Sequence (P00519 229-512): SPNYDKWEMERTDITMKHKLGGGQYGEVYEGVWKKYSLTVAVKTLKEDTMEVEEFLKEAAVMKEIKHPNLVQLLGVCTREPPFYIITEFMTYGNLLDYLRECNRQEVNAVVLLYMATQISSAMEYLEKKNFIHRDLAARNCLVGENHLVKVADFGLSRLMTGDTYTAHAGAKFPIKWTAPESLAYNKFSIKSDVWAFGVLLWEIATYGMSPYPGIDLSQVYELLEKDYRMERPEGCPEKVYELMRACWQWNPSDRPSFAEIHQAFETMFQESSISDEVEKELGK
# test_protocol: Abl kinase assay A2
# Assay type: biochemical
# condition_context: Method A2; 2 h pre-incubation, 0.5 mM ATP
// classify(record): look up IC50 in ranges Low (below 0.02 µM), Medium (0.02 µM to below 0.1 µM), High (0.1 µM or more)

| molecule | cat |
| --- | --- |
| CC(C)(C)c1cc(NC(=O)Nc2cccc(Oc3cccnc3)c2)n(-c2cccc(CC(N)=O)c2)n1 [Example 500] | Medium |
| Cc1ccc(NC(=O)Nc2cc(C(C)(C)C)nn2-c2cccc(CC(=O)NCC(O)CO)c2)cc1Nc1nccc(-c2cccnc2)n1 (centres unmarked) [Example 517] | Low |
| Cn1c(=O)c(-c2cccc(NC(=O)Nc3cc(C(C)(C)C)nn3-c3cccc(CC(N)=O)c3)c2)cc2cncnc21 [Example 513] | Medium |
| NC(=O)Cc1cccc(-n2nc(C3CCCC3)cc2NC(=O)Nc2cccc(Cl)c2Cl)c1 [Example 446] | High |
| Cc1ccc(NC(=O)Nc2cc(C(C)(C)C)nn2-c2cccc(CC(N)=O)c2)cc1Nc1nccc(-c2cccnc2)n1 [Example 516] | Low |
| NC(=O)Cc1cccc(-n2nc(C3CCCC3)cc2NC(=O)Nc2ccc(-c3cccc4c3CNC4=O)cc2)c1 [Example 512] | High |
| CNC(=O)c1cc(Oc2ccc(NC(=O)Nc3cc(C(C)(C)C)nn3-c3cccc(CC(N)=O)c3)cc2)ccn1 [Example 506] | Low |
| C=C1NS(=O)(=O)N(Cc2cccc(-n3nc(C(C)(C)C)cc3NC(=O)Nc3cccc(Cl)c3Cl)c2)C1=O [Example 511] | High |
| NC(=O)Cc1cccc(-n2nc(C(F)(F)F)cc2NC(=O)Nc2cccc(Oc3cccnc3)c2)c1 [Example 503] | High |
| Cn1c(=O)c(-c2cccc(NC(=O)Nc3cc(C4CCCC4)nn3-c3cccc(CC(N)=O)c3)c2)cc2cncnc21 [Example 514] | Medium |
| CC(C)(C)c1cc(NC(=O)Nc2ccc(-c3cccc4c3CNC4=O)cc2)n(-c2cccc(CC(N)=O)c2)n1 [Example 510] | Medium |

###

# measured_on: Abl kinase (Homo sapiens, UniProt P00519)
# test_protocol: Abl kinase assay A1
# Assay type: biochemical
# condition_context: Method A1; read-out: Results, μM (IC50)
# Experimental: IC50 values were calculated from a series of percent inhibition values determined at a range of inhibitor concentrations using software routines as implemented in the GraphPad Prism software package.

| compound | IC50 (µM) |
| --- | --- |
| NC(=O)Cc1ccc(-n2nc(C3CCCC3)cc2NC(=O)Nc2cccc(Cl)c2Cl)cc1 | 4.8 |
| CC(C)(C)c1cc(NC(=O)Nc2cccc(Cl)c2Cl)n(-c2cccc(CN3C(=O)NC(=O)C3=O)c2)n1 | 3.2 |
| NC(=O)Cc1cccc(-n2nc(-c3ccccc3)cc2NC(=O)Nc2cccc(Oc3cccnc3)c2)c1 | 2.5 |
| CC(C)(C)c1cc(NC(=O)Nc2cccc(Cl)c2Cl)n(-c2ccc(CC(=O)N3CCCC(C(=O)O)C3)cc2)n1 (stereo not shown) | 8.4 |
| NC(=O)Cc1ccc(-n2nc(-c3ccccc3F)cc2NC(=O)Nc2cccc(Cl)c2Cl)cc1 | 1.2 |
| O=C(O)Cc1cccc(-n2nc(C3CCCC3)cc2NC(=O)Nc2cccc(Cl)c2Cl)c1 | 3.9 |
| CC(C)(C)c1cc(NC(=O)Nc2cccc(F)c2F)n(-c2cccc(CC(N)=O)c2)n1 | 7.6 |
| CC(C)(C)c1cc(NC(=O)Nc2cccc(-c3cccnc3)c2)n(-c2cccc(CC(N)=O)c2)n1 | 23.3 |
| NC(=O)Cc1cccc(-c2ccc(C(F)(F)F)cc2NC(=O)Nc2ccc(-c3cccc4c3CNC4=O)cc2)c1 | 11.3 |
| NC(=O)Cc1cccc(-n2nc(-c3cccs3)cc2NC(=O)Nc2cccc(Oc3cccnc3)c2)c1 | 3.1 |

###

Reported IC50 values for a set of compounds
# measured_on: phospho p-38 alpha kinase (Homo sapiens)
# Construct: purchased Panvera
# test_protocol: P-38 alpha kinase assay (spectrophotometric, pyruvate kinase/lactate dehydrogenase coupled)
# Type: biochemical
# condition_context: Table 5; assay not named; read-out: uM

| compound | IC50 |
| --- | --- |
| CCOC(=O)Cc1ccc(-n2nc(C(C)(C)C)cc2NC(=O)Nc2ccc(Cl)cc2)cc1 [Example 317] | 0.068 µM |
| CC(C)(C)c1cc(NC(=O)Nc2ccc(Cl)cc2)n(-c2cccc(CN3C(=O)NC(=O)C3=O)c2)n1 [Example 378] | 0.4 µM |
| Cn1[nH]c(=O)n(Cc2cccc(-n3nc(C(C)(C)C)cc3NC(=O)Nc3cccc(Cl)c3Cl)c2)c1=O [Example 408] | 0.116 µM |
| CC(C)(O)c1cccc(-n2nc(-c3ccccc3)cc2NC(=O)Nc2cccc3ccccc23)c1 [Example 329] | 0.25 µM |
| NC(=O)Cc1ccc(-n2nc(C3CCCC3)cc2NC(=O)Nc2cccc(Cl)c2Cl)cc1 [Example 467] | 0.119 µM |
| CC(C)(C)c1cc(NC(=O)Nc2cccc(Cl)c2Cl)n(-c2ccc(CO)cc2)n1 [Example 363] | 0.19 µM |
| CC(C)(C)c1cc(NC(=O)Nc2cccc3ccccc23)n(-c2cccc(CN)c2)n1 [Example 307] | 0.049 µM |
| CCOC(=O)C(C)Cc1cccc(-n2nc(C(C)(C)C)cc2NC(=O)Nc2cccc(Cl)c2Cl)c1 (centres unmarked) [Example 322] | 2.02 µM |

###

# measured_on: phosphorylated p-38-alpha kinase (Homo sapiens)
# Sequence (Q16539 1-360 isoform Q16539-2): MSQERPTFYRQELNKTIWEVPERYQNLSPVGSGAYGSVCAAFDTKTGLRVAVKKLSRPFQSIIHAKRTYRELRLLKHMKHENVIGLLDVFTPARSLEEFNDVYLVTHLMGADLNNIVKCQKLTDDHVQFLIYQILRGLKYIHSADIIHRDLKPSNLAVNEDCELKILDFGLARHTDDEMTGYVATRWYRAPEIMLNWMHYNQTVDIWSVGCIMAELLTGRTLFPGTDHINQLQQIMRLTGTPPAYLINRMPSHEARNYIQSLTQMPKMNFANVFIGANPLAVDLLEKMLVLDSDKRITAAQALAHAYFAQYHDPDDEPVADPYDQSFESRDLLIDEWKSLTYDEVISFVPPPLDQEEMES
# test_protocol: P-38 alpha kinase assay P1
# Assay type: biochemical
# condition_context: Method P1; 2 h pre-incubation before ATP
measured_quantity: IC50 (µM)

| compound | result |
| --- | --- |
| O=C(Cc1ccc(-n2nc(-c3ccccc3F)cc2NC(=O)Nc2cccc(Cl)c2Cl)cc1)NCC(O)CO (stereo not shown) | 0.016 |
| O=C(Cc1ccc(-n2nc(-c3ccccc3F)cc2NC(=O)Nc2cccc(Cl)c2Cl)cc1)NC(CO)CO | 0.03 |
| NC(=O)Cc1ccc(-n2nc(-c3cccs3)cc2NC(=O)Nc2cccc(Cl)c2Cl)cc1 | 0.009 |
| O=C(Cc1ccc(-n2nc(-c3cccs3)cc2NC(=O)Nc2cccc(Cl)c2Cl)cc1)NC(CO)CO | 0.013 |

###

# measured_on: phospho p-38 alpha kinase (Homo sapiens, UniProt Q16539)
# Construct: purchased Panvera
# Sequence (Q16539 whole entry): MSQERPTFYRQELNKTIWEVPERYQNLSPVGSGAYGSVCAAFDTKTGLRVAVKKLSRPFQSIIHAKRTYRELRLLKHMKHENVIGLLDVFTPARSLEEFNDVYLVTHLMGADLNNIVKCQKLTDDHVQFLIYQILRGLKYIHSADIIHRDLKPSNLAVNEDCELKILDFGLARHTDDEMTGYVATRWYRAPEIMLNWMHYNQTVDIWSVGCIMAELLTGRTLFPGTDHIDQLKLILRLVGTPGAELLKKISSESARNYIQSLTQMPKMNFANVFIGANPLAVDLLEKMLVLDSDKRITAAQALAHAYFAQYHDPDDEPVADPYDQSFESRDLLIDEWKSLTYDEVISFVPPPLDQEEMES
# test_protocol: P-38 alpha kinase assay (spectrophotometric, pyruvate kinase/lactate dehydrogenase coupled)
# Type: biochemical
# condition_context: Table 5; assay not named; read-out: uM
Reported IC50 by item:

| compound | IC50 |
| --- | --- |
| CCOC(=O)c1cccc(-n2nc(C(C)C)cc2NC(=O)Nc2cccc3ccccc23)c1 | 0.05 µM |
| CCOC(=O)c1cccc(-n2nc(C)cc2NC(=O)Nc2cccc(Cl)c2Cl)c1 | 1 µM |
| CCOC(=O)Cc1cccc(-n2nc(C(C)(C)C)cc2NC(=O)Nc2ccccc2)c1 | 0.04 µM |
| O=C(Cc1cccc(-n2nc(-c3ccccc3F)cc2NC(=O)Nc2cccc(Cl)c2Cl)c1)NCCO | 0.04 µM |
| CCOC(=O)CCc1cccc(-n2nc(C)cc2NC(=O)Nc2ccc(Cl)cc2)c1 | 0.14 µM |
| CC(Cc1cccc(-n2nc(-c3ccccc3F)cc2NC(=O)Nc2cccc(Cl)c2Cl)c1)C(N)=O (centres unmarked) | 0.52 µM |
| Cc1ccc(NC(=O)Nc2cc(C(C)(C)C)nn2-c2cccc(CC(N)=O)c2)cc1Nc1nccc(-c2cccnc2)n1 | 0.45 µM |
| CNC(=O)c1cc(Oc2ccc(NC(=O)Nc3cc(C(C)(C)C)nn3-c3cccc(CC(N)=O)c3)cc2)ccn1 | 0.042 µM |

###

# measured_on: phospho p-38 alpha kinase (Homo sapiens)
# Construct: purchased Panvera
# test_protocol: P-38 alpha kinase assay (spectrophotometric, pyruvate kinase/lactate dehydrogenase coupled)
# Type: biochemical
# condition_context: Table 5; assay not named; read-out: uM
measured_quantity: log10(IC50) (log10 of the value in µM)

| compound_string | log10(IC50) |
| --- | --- |
| CC(C)(C)c1cc(NC(=O)Nc2ccc(F)c(F)c2F)n(-c2ccc(CC(=O)O)cc2)n1 | -1.40 |
| CC(C)(C)c1cc(NC(=O)Nc2ccc(F)cc2)n(-c2cccc(Cn3c(=O)[nH]n(-c4ccccc4)c3=O)c2)n1 | -1.25 |
| CC(C)(C)c1cc(NC(=O)Nc2ccc(Cl)cc2)n(-c2cccc(CNC(=O)N3CCCCC3)c2)n1 | -1.52 |
| CCOC(=O)Cc1cccc(-n2nc(C(C)(C)C)cc2NC(=O)Nc2cccc3ccccc23)c1 | -0.49 |
| CC(C)(C)c1cc(NC(=O)Nc2cccc3ccccc23)n(-c2cccc(CNC(=O)N3CCCC3)c2)n1 | -1.00 |
| O=C(O)Cc1cccc(-n2nc(-c3ccccc3)cc2NC(=O)Nc2cccc(Cl)c2Cl)c1 | -0.03 |
| CC(C)(C)c1cc(NC(=O)Nc2cccc(-c3cccnc3)c2)n(-c2cccc(CC(N)=O)c2)n1 | -2.15 |
| CCOC(=O)CCc1cccc(-n2nc(-c3ccccc3)cc2NC(=O)Nc2ccc(Cl)cc2)c1 | -0.74 |
| CC(C)(C)c1cc(NC(=O)Nc2cccc(Cl)c2Cl)n(-c2ccc(C(C)(C)O)cc2)n1 | -2.00 |
| CC(C)(C)c1cc(NC(=O)Nc2cccc(Cl)c2Cl)n(-c2cccc(CN3C(=O)NC(=O)C3=O)c2)n1 | -1.08 |
| CCOC(=O)Cc1cccc(-n2nc(C(C)(C)C)cc2NC(=O)Nc2cccc(Cl)c2Cl)c1 | -0.28 |
| CNC(=O)Cc1cccc(-n2nc(C(C)(C)C)cc2NC(=O)Nc2cccc(Cl)c2Cl)c1 | -0.89 |
| CCOC(=O)Cc1cccc(-n2nc(C(C)(C)C)cc2NC(=O)Nc2ccc(Cl)cc2)c1 | -0.10 |
| CC(C)(C)c1cc(NC(=O)Nc2cccc(Cl)c2Cl)n(-c2cccc(CO)c2)n1 | 0.16 |
| NC(=O)Cc1cccc(-c2ccc(C(F)(F)F)cc2NC(=O)Nc2ccc(-c3cccc4c3CNC4=O)cc2)c1 | -0.57 |
| CCOC(=O)c1ccc(-n2nc(C)cc2NC(=O)Nc2ccc(Cl)cc2)cc1 | -0.74 |
